# System: SF-539 CNS
# protocol_text: NCI tumour cell line growth inhibition, 48 h
Listed next: entries and their corresponding TGI.
assay_endpoint: TGI

> print(dat)
                                   compound  assay.endpoint    result
1  OCC(O)C(O)C(O)C(/C=N\Nc1ncnc2c(Br)cc(Br)cc12)=N/Nc1ncnc2c(Br)cc(Br)cc12 (stereo not drawn)             TGI   33.9 µM
2  CSC(SC)=C(C(=O)c1ccc(Cl)cc1)n1c(=O)sc2cc(Br)ccc21             TGI  > 100 µM
3  C[C@]12CC[C@H]3[C@@H](CC=C4C[C@@H](N5CCCC5)CC[C@@]43C)[C@@H]1C[C@H](N1CCCCC1)[C@@H]2O             TGI  > 100 µM
